The origin of these recorded values is patent US5716797A.

- Test system: creatine kinase (CK) in human serum
- assayName: CK activity measured with enzyme solutions containing SH compounds as CK reactivator, fresh and after 1 month of storage (Example 1 / Comparative Example 1)
- Format: biochemical
- experimentalParameters: Sample 5; enzyme solution stored at 10° C. for 1 month; TG 100, 2ME 26, 2MES 26, NAC 26, L-cysteine 6.5, GSH 12, TDG 5, DTT 6.5 mM
endpointLabel: CK activity value (IU/l)

>>> print(df.to_string())
                                   compound      endpointlabel  assayvalue
0  O.O.OC[C@H]1O[C@@H](S)[C@H](O)[C@@H](O)[C@@H]1O.[Na].[Na]  CK activity value           0
1                   CC(=O)N[C@@H](CS)C(=O)O  CK activity value          88
2                         N[C@@H](CS)C(=O)O  CK activity value          63
3                             O=S(=O)(O)CCS  CK activity value          85
4               OCC(O)CS (stereo not drawn)  CK activity value          88
5                                      OCCS  CK activity value          89
